# credit: paper PMC12670118

Tested on: 4T1 cells
Assay: MTT antiproliferative assay, 4T1
Assay type: cell-based, mouse
Conditions: read-out: Cytotoxicity IC50, 4T1, 72 h
measure-name: pIC50
Friendly reminder that pIC50 comes from taking -log10 of the concentration in mol/L.

Fill blank: measured pIC50 of the compound N.N.[Cl][Pt][Cl] [Cisplatin] is ____. 4.59

====

System: MDA-MB-231 cells
Assay: MTT antiproliferative assay, MDA-MB-231
Type: cell-based, human
Settings: read-out: Cytotoxicity IC50, MDA-MB-231, 72 h
measure-name: IC50 (µM)
Give just the number in µM; leave the unit off.

If you can, please state the reported IC50 value of N.N.[Cl][Pt][Cl] [Cisplatin] . 20.2
